Source of measurements: patent US5278045A

# measured-target: DuP 996 binding protein
# assay-text: Radioreceptor screening assay (displacement of tritiated DuP 996)
# test-context: inhibition of binding of 10 nM tritiated DuP 996, pH 7.4, 25° C., 60 minutes
measure-name: IC50

compound	observed-result
O=C1c2ccccc2C(Cc2ccncc2)(Cc2ccncc2)c2ccccc21 [Compound 4]	0.034 µM
c1ccc2c(c1)Sc1ccccc1C2(Cc1ccncc1)Cc1ccncc1 [Compound 6]	0.051 µM
CC(=O)c1ccc2c(c1)C(Cc1ccncc1)(Cc1ccncc1)c1ccccc1-2 [Compound 1]	0.02 µM
CN1C(=O)C(Cc2ccncc2)(Cc2ccncc2)c2ccccc21 [Compound 22]	15.9 µM
c1ccc(CC2(Cc3ccccn3)c3ccccc3-c3ccccc32)nc1 [Compound 29]	1100 µM
O=C1N(c2ccccc2)c2ccccc2C1(Cc1ccncc1)Cc1ccncc1 [Compound 7]	0.056 µM
O=C1N(c2ccccc2)c2ccccc2C1(Cc1ccncc1)Cc1ccncn1 (stereo not drawn) [Compound 13]	0.179 µM
O=C1N(c2ccccc2)c2ccccc2C1(Cc1ccncn1)Cc1ccncn1 [Compound 16]	0.57 µM
O=C1N(c2ccccc2)c2ccccc2C1(Cc1cnccn1)Cc1cnccn1 [Compound 20]	4.2 µM
